System: Staphylococcus aureus 447
testDescription: broth micro-dilution MIC
Type: cell-based
observationType: MIC (µg/mL)

compound="CN[C@H](CC(C)C)C(=O)N[C@H]1C(=O)N[C@@H](CC(N)=O)C(=O)N[C@H]2C(=O)N[C@H]3C(=O)N[C@H](C(=O)N[C@H](C(=O)O)c4cc(O)cc(O)c4-c4cc3ccc4O)[C@H](O[C@H]3C[C@](C)(N)[C@@H](O)[C@H](C)O3)c3ccc(c(Cl)c3)Oc3cc2cc(c3O[C@@H]2O[C@H](CO)[C@@H](O)[C@H](O)[C@H]2O[C@H]2C[C@](C)(NCc3ccc(-c4ccc(C)cc4)cc3)[C@@H](O)[C@H](C)O2)Oc2ccc(cc2Cl)[C@H]1O [Compound 97]" measurement=1
compound="CNC(CC(C)C)C(=O)NC1C(=O)NC(CC(N)=O)C(=O)NC2C(=O)NC3C(=O)NC(C(=O)NC(C(=O)O)c4cc(O)cc(O)c4-c4cc3ccc4O)C(OC3CC(C)(N)C(O)C(C)O3)c3ccc(c(Cl)c3)Oc3cc2cc(c3OC2OC(CO)C(O)C(O)C2OC2CC(C)(NCc3ccc(OC(F)(F)F)cc3)C(O)C(C)O2)Oc2ccc(cc2Cl)C1O (stereo not drawn) [Compound 6]" measurement=0.5
compound="CNC(CC(C)C)C(=O)NC1C(=O)NC(CC(N)=O)C(=O)NC2C(=O)NC3C(=O)NC(C(=O)NC(C(=O)O)c4cc(O)cc(O)c4-c4cc3ccc4O)C(OC3CC(C)(N)C(O)C(C)O3)c3ccc(c(Cl)c3)Oc3cc2cc(c3OC2OC(CO)C(O)C(O)C2OC2CC(C)(NCc3ccc(-c4ccc([N+](=O)[O-])cc4)cc3)C(O)C(C)O2)Oc2ccc(cc2Cl)C1O (stereo not drawn) [Compound 64]" measurement=0.5

Data origin, for the record: patent US5840684A
